System: NCI-H23 lung
Experiment: NCI-60 one-dose screen, 48 h
Conditions: 10 µM unless noted
Method: Growth inhibition of the NCI-H23 human Non-Small Cell Lung tumor cell line is measured as a screen for anti-cancer activity. Cells are grown in 96 well plates and exposed to the test compound for 48 hours. Compounds are tested at a single concentration, which is 10^-5 M for most compounds. The reported endpoint is percent growth (GI% or GIPRCNT), where numbers from 0 - 100% represent growth inhibition, and numbers from -100% - 0 represent cell death. […]
Compounds without any hit were thinned out: in the full panel of roughly 83,000, 20% have a hit. Active and inactive are the calls of the source. Rule for the calls: active = growth percent below 10; inactive = the rest.
Please state which outcome applies, choosing from active, inactive

Known results for compounds:
O=C(Nc1nc(-c2ccc(Cl)cc2)cs1)c1cc(O)c(O)c(O)c1	inactive
Cc1nnc(Nc2ccc(NC(=O)Nc3ccc(Cl)cc3)cc2)c2ccccc12	inactive
NC(N)=NC(N)=NCCCc1ccccc1	inactive

**Query** Please state the recorded outcome for this compound: Fc1ccc(-c2nnc(/C=C/c3cn(-c4ccccc4)nc3-c3ccccc3)o2)cc1
**Result** inactive

**Query** Please state the recorded outcome for this compound: O=C1C[C@@H]2/C(=C(O)\C=C\c3ccccc3)C(=O)C=C[C@@H]2O1
**Result** inactive

**Query** Please state the recorded outcome for this compound: CCN(CC)CCCNCCCNc1cc(OC)cc2cccnc12
**Result** inactive

**Query** Please state the recorded outcome for this compound: COc1ccc2nc3cc(Cl)ccc3c(Nc3cc(C(C)C)c(O)cc3C)c2c1
**Result** inactive

**Query** Please state the recorded outcome for this compound: CCCCCCCCCCC[C@@H](C[C@H]1OC(=O)[C@H]1CCCCCC)OC(=O)[C@@H](CC(C)C)NC=O
**Result** inactive

---

growth overview
test system: SNB-75 CNS; assay: NCI-60 one-dose screen, 48 h (100 = growth as untreated, 0 = no growth, -100 = all killed); conditions: 10 µM unless noted
Compounds without any hit were thinned out: in the full panel of roughly 83,000, 20% have a hit. Activity calls are given as the source filed them. The calls were made as follows: active = growth percent below 10; inactive = the rest.

CCCCCCCC/C=C\CCCCCCCCOc1ccccc1CC(=O)NCC[N+]1(C)CCCC1	79% (inactive)

**Query** Return growth (reported value) for this compound: OC(Cc1cccnc1)c1ccccc1 (stereo unspecified)
**Result** 99.7% (inactive)

**Query** Return growth (reported value) for this compound: CC1=C(C(=O)Nc2ccccc2)C(c2ccc3c(c2)OCCO3)NC(=O)N1 (stereo unspecified)
**Result** 102% (inactive)

**Query** Return growth (reported value) for this compound: CN1CCCC1c1cccnc1 (stereo unspecified)
**Result** 99.7% (inactive)

---

system: HCT-116 colon; assay: NCI-60 one-dose screen, 48 h (100 = growth as untreated, 0 = no growth, -100 = all killed); conditions: 10 µM unless noted
About 83,000 compounds went through this panel and 20% of them were active in at least one assay; those are over-represented in the sample as a whole.
quantity measured: growth (%)
Lab book: enter the figure in %, no units written.

c1ccc(-n2nnnc2-c2cccc3ccccc23)cc1	14.9
CSc1ncc2ncn(C3OC(CO)C(O)C3O)c2n1 (stereo unspecified)	102
C=Cc1nn2c(CCC(=O)c3nc4ccccc4[nH]3)nnc2s1	98.5
Cc1c(N(C)CS(=O)(=O)O)c(=O)n(-c2ccccc2)n1C	105
Clc1ncn[nH]1	108

**Query** Return growth (reported value) for this compound: C=CCOc1ccc2c(c1)CC[C@@H]1[C@@H]2CC[C@@]2(C)[C@H]1CC[C@]2(C)O
**Result** 94.4

**Query** Return growth (reported value) for this compound: COc1ccc(-c2nc3sccn3c2-c2ccnc(S(C)(=O)=O)n2)cc1
**Result** 79.6

**Query** Return growth (reported value) for this compound: COc1cc2cn3c4ccc(O)cc4nc(N)c3c2cc1OC
**Result** -50.7

**Query** Return growth (reported value) for this compound: Cc1cc2c(cc1[N+](=O)[O-])NC(CNC(C)C)CC2 (stereo unspecified)
**Result** 96.2

**Query** Return growth (reported value) for this compound: COc1ccc(CCN2CCCN3C2=Nc2ccccc2S3(=O)=O)cc1
**Result** 17.4

**Query** Return growth (reported value) for this compound: O=C(C(=O)N1CCCCC1)c1ccc(OC2OC(CO)C(O)C(O)C2O)cc1 (stereo unspecified)
**Result** 109

---

system: TK-10 renal; assay: NCI-60 one-dose screen, 48 h (100 = growth as untreated, 0 = no growth, -100 = all killed); conditions: 10 µM unless noted
About 83,000 compounds went through this panel and 20% of them were active in at least one assay; those are over-represented in the sample as a whole.
quantity measured: growth (%)
Lab book: enter the figure in %, no units written.

C[n+]1ccc(Nc2ccc(NC(=O)c3ccc(Nc4cc[n+](C)c5ccc(N)cc45)cc3)cc2)cc1	108
O=C(N1CCC(CN=c2cc3n(-c4ccc(Cl)cc4)c4ccccc4nc-3cc2Nc2ccc(Cl)cc2)CC1)N1CC1	-42.9
O=C1Nc2ccccc2C12Nc1cc(Cl)ccc1S2 (centres undefined)	141
O=C1C[C@@H]2/C(=C(O)\C=C\c3ccccc3)C(=O)C=C[C@@H]2O1	3.39
CCC(C)(C)C(=O)O[C@H]1C[C@@H](C)C=C2C=C[C@H](C)[C@H](CC[C@@H]3C[C@@H](O)CC(=O)O3)[C@H]21	83.1
CCCCCCCCCCCCCCCCCC1=NC(C)(C)CN1CCO	-33.8
O=C(Nc1ccc(Oc2ccc(NC(=O)Nc3ccc([N+](=O)[O-])cc3)cc2)cc1)Nc1ccc([N+](=O)[O-])cc1	15.1
CO[C@H]1CC(O[C@@H]2/C(C)=C/C[C@@H]3C[C@@H](C[C@]4(CC[C@H](C)[C@@H](C5CCCCC5)O4)O3)OC(=O)[C@@H]3C=C(C)/C(=N/O)[C@H]4OC/C(=C\C=C\[C@@H]2C)[C@]43O)O[C@@H](C)C1O (some centres undefined)	-90.4
CC(C)c1nc(N(C)S(C)(=O)=O)nc(-c2ccc(F)cc2)c1/C=C/[C@@H](O)C[C@@H](O)CC(=O)O	107
NC(=O)SCC(=O)Nc1ccccc1-c1ccccc1	106

**Query** Return growth (reported value) for this compound: COc1ccc(Cn2c(NCCCN(C)C)nc(=O)n(Cc3ccc(F)cc3)c2=O)cc1
**Result** 110

**Query** Return growth (reported value) for this compound: Cc1ccc2c(c1)O/C(=C\c1ccc([N+](=O)[O-])o1)C2=O
**Result** -32.7

**Query** Return growth (reported value) for this compound: Nc1nc2ncc(CCNc3ccc(C(=O)NC(CCC(=O)O)C(=O)O)cc3)nc2c(=O)[nH]1 (centres undefined)
**Result** 107

**Query** Return growth (reported value) for this compound: Clc1ccc(-c2nc(-c3cccs3)no2)c(Cl)c1
**Result** 71.4

**Query** Return growth (reported value) for this compound: COc1cc(/C=C/C(=O)c2ccc(F)cc2)ccc1OCCCCCOc1cc2c(cc1OC)C(=O)N1CCCC1C=N2 (centres undefined)
**Result** -9.06

**Query** Return growth (reported value) for this compound: COc1ccc(CCN2CCCN3C2=Nc2ccccc2S3(=O)=O)cc1
**Result** 61.1

**Query** Return growth (reported value) for this compound: NC(=O)N/N=C/c1ccc(Br)o1
**Result** 101

**Query** Return growth (reported value) for this compound: CCCCCCCCSc1ncnc2c1ncn2CO
**Result** 89.9

**Query** Return growth (reported value) for this compound: CN(C)c1ccc2[nH]c3c(C(N)=O)cc(=O)c(=O)c=3oc2c1
**Result** 111

---

test system: NCI-H522 lung; experiment: NCI-60 one-dose screen, 48 h; conditions: 10 µM unless noted
About 83,000 compounds went through this panel and 20% of them were active in at least one assay; those are over-represented in the sample as a whole. Activity calls are given as the source filed them. Rule for the calls: active = growth percent below 10; inactive = the rest.
Please state which outcome applies, choosing from t = active, f = inactive

CCCCCCCC1(C)NC(=O)NC1=O (stereo not drawn)	f
O=C(NCCCO)c1cc(Cl)ccc1O	t
COc1cc([C@@H]2c3cc4c(cc3C(O[C@@H]3O[C@@H]5CO[C@@H](c6cccs6)OC5[C@H](O)[C@H]3O)C3COC(=O)[C@@H]32)OCO4)cc(OC)c1O (stereo partly drawn)	t
C=CCOc1ccc2c(c1)CC[C@@H]1[C@@H]2CC[C@@]2(C)[C@H]1CC[C@]2(C)O	f
Cc1ccc([N+](=O)[O-])cc1NC(=O)Nc1cccc(F)c1	f

**Query** Please state the recorded outcome for this compound: CN1CCN(Cc2ccc(NC(=O)c3[nH]ncc3Nc3ccnc4ccnn34)cc2)CC1
**Result** f

---

tested on: SK-MEL-5 melanoma; assay: NCI-60 one-dose screen, 48 h; details: 10 µM unless noted
This is part of a sample that, as a whole, favours compounds with a hit. Of some 83,000 tested, about 20% had one in any assay. Activity calls are given as the source filed them. Rule for the calls: active = growth percent below 10; inactive = the rest.
Please state which outcome applies, choosing from y for active, n for inactive

Known results for molecules:
Cc1cc(C)n(C(=O)c2nn(-c3ccc(Cl)cc3)cc2O)n1	n
Cn1cc(-c2csc(-c3cn(C)c4ncccc34)n2)c2cc(F)cnc21	n
S=C(c1ccccc1)N1CCN(c2cccc(Cl)c2)CC1	n
CCOC(=O)c1ccccc1OC(=O)NNc1ccccc1	n
COc1ccc(C2CC(c3cccc(Nc4ccnc5cc(Cl)ccc45)c3)=NN2C=O)cc1 (stereo not given)	n
COc1ccc(Cn2c(NCCCN(C)C)nc(=O)n(Cc3ccc(F)cc3)c2=O)cc1	n
CC/C(=C\c1ccc(N(C)C)cc1)c1ccncc1	n
Cn1c(=O)c2nc(SCc3ccccc3)n(C)c2n(C)c1=O	n

**Query** Please state the recorded outcome for this molecule: Cc1ccccc1-c1cc(Cc2ccccc2O)c(=O)[nH]n1
**Result** n

**Query** Please state the recorded outcome for this molecule: Clc1nc(Cl)c2ncn(-c3ccccc3)c2n1
**Result** n

**Query** Please state the recorded outcome for this molecule: N#Cc1ccc(NC(=O)Nc2ccc(Oc3ccc(NC(=O)Nc4ccc(C#N)cc4)cc3)cc2)cc1
**Result** n
